Test: qHTS Assay for Lipid Storage Modulators in Drosophila S3 Cells;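 on cell number change: cells counted by Cell Tracker Red CMTPX staining in the red channel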
Settings: BODIPY lipid droplet fluorescence, 18-24 h, cells fed with added oleic acid; measured here: cell count max response
Source text: NIH Molecular Libraries Probe Production Centers Network [MLPCN] NIH Chemical Genomics Center [NCGC] […] Triacsin C (Sigma-Aldrich T-4540), an inhibitor of long-chain fatty acyl CoA synthetase that blocks synthesis of triglycerides, was used as a positive control for lipid under-storage. […] Fluorescence was detected by excitation of the fluorophores with a 488-nm laser on an Acumen Explorer (TTP Lab Tech). […] Cells were detected using channel 3 (575-640 nm) with 5-um width and 100-um depth filters. […]
Screen size: about 320,000 compounds; about 2,100 (0.66%) were called active. Inconclusive results (about 53%) are left out. This excerpt belongs to a sample that is enriched for actives.
Parameter: cell number change (%)
Numeric only. Scale: %

Returns the measured cell number change for the input compound. Input: "Cc1cc(C)cc(NC(=O)CSc2nc3ccccc3nc2N2CCCCC2)c1" 10.1

# iterate: "CCc1ccc2oc(C(=O)N3CCN(C)CC3)cc(=O)c2c1" 14.4

# iterate: "O=C(CN1C(=O)c2ccccc2S1(=O)=O)Nc1ccccc1C(=O)NCc1ccco1" -1.22

# iterate: "COc1cc(/C=C2\SC(=S)N(CCC(=O)Nc3cccc(O)c3)C2=O)cc(OC)c1OC" 10.2

# iterate: "COc1ccc(CCN(Cc2ccc(C(C)C)cc2)S(=O)(=O)c2ccc(S(=O)(=O)N(C)C)cc2)cc1OC" -3.06

# iterate: "CCc1ccc(NC(=O)CSc2nc3ccccc3nc2N2CCCCC2)cc1" 25.4

# iterate: "O=C(O)c1ccc(N/N=C/c2cn(Cc3ccc(F)cc3)c3ccccc23)cc1" 0.719

# iterate: O=C(Nc1cccnc1)c1ccc2c(c1)C(=O)N(CC1CCCO1)C2=O (centres undefined) 5.85

# iterate: "O=C(CSc1ccc(F)cc1)N1CCOCC1" 7.13

----------
test: qHTS Assay for Lipid Storage Modulators in Drosophila S3 Cells; settings: BODIPY lipid droplet fluorescence, 18-24 h, cells fed with added oleic acid; series mostly up to 46.1 µM
The whole screen tested about 320,000 compounds, of which about 2,100 (0.66%) were called active. Inconclusive results (about 53%) are left out. The call rests on the fitted dose curve; in most records, active means well fitted inhibition curve with a large enough effect in the signal ratio, with a control signal flat (not every such curve was filed as active); inconclusive means small, poorly fitted or top-dose-only effect, or effect the other way, or a change in a side signal; inactive means flat fitted curve, though single readings scatter; the % refers to the signal ratio. The full list was thinned out, with actives kept by preference.
// one of TRUE = active, FALSE = inactive, no free text

Recorded test call requested for "O=C(CNc1cccc2ccccc12)N/N=C/c1ccc([N+](=O)[O-])cc1" FALSE

# iterate: "Cc1cc(C)nc(NS(=O)(=O)c2ccc(NC(=O)CN3C(=O)c4ccccc4C3=O)cc2)n1" TRUE

# iterate: COc1ccc(C(C(=O)NC2CCCC2)N(Cc2cccnc2)C(=O)Cc2cccs2)cc1OC (stereo unspecified) FALSE

# iterate: COc1ccccc1C1NC(=O)NC(C)=C1C(=O)OCc1ccccc1 (stereo unspecified) FALSE

# iterate: "CCOC(=O)COc1ccc(C)cc1-c1ccno1" FALSE

# iterate: "O=C(CNc1ccc2ccccc2c1)N/N=C/c1ccc([N+](=O)[O-])o1" FALSE

# iterate: "CC(C)(C)c1ccc(/C=C/C(=O)N2CCOCC2)cc1" FALSE

# iterate: "Cc1ccc(-c2ccc(=O)n(CCC(=O)N3CCN(Cc4ccccc4)CC3)n2)cc1" FALSE

# iterate: COc1ccccc1NC(=O)CC(NC1CCCCC1)C(=O)O (stereo unspecified) FALSE

# iterate: "CC(=O)c1ccc(NC(=S)NC(=O)/C=C/c2ccco2)cc1" FALSE

# iterate: "O=C(N/N=C/c1ccc([N+](=O)[O-])o1)C(=O)Nc1ccc(C(=O)O)cc1" FALSE

# iterate: COc1ccccc1C1NC(=O)NC(C)=C1C(C)=O (stereo unspecified) TRUE

# iterate: "Cc1nn(C)c(C)c1/C=N/NC(=O)CCn1nc(C)c([N+](=O)[O-])c1C" FALSE

# iterate: "CC(=O)Nc1ccc(NC(=S)NC(=O)/C=C/c2ccco2)cc1" TRUE

# iterate: Cc1cccc(NC(=O)CC2C(=O)NC3CCCCC3N2C(=O)c2ccccc2Cl)c1 (stereo unspecified) FALSE

# iterate: "CCCCCCCC(=O)N/N=C/c1ccc([N+](=O)[O-])o1" FALSE

----------
assay: qHTS Assay for Lipid Storage Modulators in Drosophila S3 Cells; settings: BODIPY lipid droplet fluorescence, 18-24 h, cells fed with added oleic acid; series mostly up to 46.1 µM
Among all 320,000 compounds or so, about 2,100 (0.66%) were called active. Another 53% or so got no clear call; they are omitted. Calls follow the shape of the dose curve; as a rule, active = well fitted inhibition curve with a large enough effect in the signal ratio, with a control signal flat (not every such curve was filed as active); inconclusive = small, poorly fitted or top-dose-only effect, or effect the other way, or a change in a side signal; inactive = flat fitted curve, though single readings scatter; the % refers to the signal ratio. This excerpt belongs to a sample that is enriched for actives.
// one of active, inactive, no free text

Recorded test call requested for "N#C/C(C(=O)Oc1ccccc1)=C1\C=Cc2ccccc2N1" inactive

# iterate: O=C(Nc1ccccc1Cl)/C(Cl)=C(\Cl)S(=O)c1ccccc1 (stereo not drawn) active

# iterate: COc1ccc(C2CC3(CC(C)(C)NC(SC)=N3)Oc3cc(O)cc(C)c32)cc1 (stereo not drawn) active

# iterate: Cc1cc(OC(C)C(=O)NCC(O)c2ccccc2)c2c(C)cc(=O)oc2c1 (stereo not drawn) inactive

# iterate: Cc1cc(O)cc2c1C(c1ccc(F)cc1)CC1(CC(C)(C)NC(=S)N1)O2 (stereo not drawn) inactive

# iterate: COc1ccc(C2C(C(=O)N3CCCCC3)CC(=O)N2c2ccc(OC)cc2)cc1 (stereo not drawn) inactive

# iterate: CC1CCCCN1Cc1c(O)ccc2c(=O)c(-c3ccc(Cl)cc3Cl)coc12 (stereo not drawn) inactive

# iterate: "O=C(NCCc1ccccc1)C(=O)c1c(-c2ccccc2)cc2ccccn12" inactive

# iterate: COc1ccc(C2CC3(CC(C)(C)NC(=S)N3)Oc3cc(O)cc(C)c32)cc1 (stereo not drawn) inactive

# iterate: "C[C@@H]1CC[C@H](O)/C=C/C(=O)O[C@H](C)CC[C@H](O)/C=C/C(=O)O1" active

# iterate: "COc1ccc(CN(C)S(=O)(=O)c2nnc(NC(=O)c3ccccc3OC)s2)cc1OC" inactive

# iterate: "c1ccc(-n2cc(CN3CCC(N4CCOCC4)CC3)c(-c3ccc4c(c3)OCO4)n2)cc1" inactive

# iterate: "Cc1ccccc1-n1nc2c(c1NC(=O)c1cccs1)CS(=O)(=O)C2" inactive

----------
experiment: qHTS Assay for Lipid Storage Modulators in Drosophila S3 Cells; settings: BODIPY lipid droplet fluorescence, 18-24 h, cells fed with added oleic acid; measured here: cell count max response;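 on cell number change: cells counted by Cell Tracker Red CMTPX staining in the red channel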
Screen size: about 320,000 compounds; about 2,100 (0.66%) were called active. Roughly 53% stayed inconclusive and do not appear here. This is one part of a sample in which actives are shown more often than they occur.
Parameter: cell number change (%)
Numeric only. Scale: %

Returns the measured cell number change for the input molecule. Input: COc1ccc(C2CC(=O)c3sc(NC(C)=O)nc3C2)cc1 (stereo not given) 20.9

# iterate: "CC(=O)c1c(C)[nH]c(C(=O)Nc2nccs2)c1C" 5.23

# iterate: "O=C(CSc1ccc2nnc(-c3cccnc3)n2n1)Nc1ccccc1" 8.38

# iterate: "Cc1ccc(OCCn2cc(C(=O)O)c3ccccc32)cc1" 6.58

# iterate: "Cc1nnc(NC(=O)c2ccccc2Br)s1" 8.15

# iterate: "Cc1ccc(NC(=O)CSc2ccc3nnc(-c4cccnc4)n3n2)cc1" -9.27

# iterate: "CCS(=O)(=O)Nc1cccc(-c2ccc3nnc(C)n3n2)c1" -5.54

# iterate: "COc1ccc(OC)c(NS(=O)(=O)c2ccc(Cl)nc2)c1" 7.58

# iterate: "CCCS(=O)(=O)Nc1cccc(-c2ccc3nnc(C)n3n2)c1" 7.15

# iterate: "CC(=O)c1ccc(NC(=O)CSc2ccc3nnc(-c4cccnc4)n3n2)cc1" 1.01

# iterate: "CN(C)c1ccc(S(=O)(=O)NCC(=O)NCc2ccccc2)cc1[N+](=O)[O-]" 21.7

# iterate: "O=C(c1cccnc1Cl)N(Cc1ccccc1)Cc1ccccc1" 4.31

# iterate: "CCCOc1ccc(/C=C/C(=O)N2CCN(c3ccccn3)CC2)cc1" -20.8

# iterate: "O=C(N/C(=C/c1cccnc1)C(=O)N1CCOCC1)c1ccco1" 0.681

# iterate: "Cc1ccc(/C=N/n2c(-c3ccccc3)n[nH]c2=S)cc1" 7.92

# iterate: "CC(=O)N(C(C)=O)c1nc(-c2ccccc2)cn1/N=C/c1ccccc1" -51.6

# iterate: "Cc1ccc(Sc2ncccc2[N+](=O)[O-])cc1" -12.8

# iterate: "CCN(CC)CCn1c(=N)n(CCOc2ccccc2)c2ccccc21" -6.28

# iterate: "OCCCNc1cc(-c2ccnc(Nc3cccc(Cl)c3)n2)ccn1" -20.1

# iterate: "Nc1nc(-c2ccccc2)cn1/N=C/c1ccccc1" 9.59

----------
Test: qHTS Assay for Lipid Storage Modulators in Drosophila S3 Cells
Conditions: BODIPY lipid droplet fluorescence, 18-24 h, cells fed with added oleic acid; series mostly up to 46.1 µM
Excerpt: NIH Molecular Libraries Probe Production Centers Network [MLPCN] NIH Chemical Genomics Center [NCGC] […] Triacsin C (Sigma-Aldrich T-4540), an inhibitor of long-chain fatty acyl CoA synthetase that blocks synthesis of triglycerides, was used as a positive control for lipid under-storage. […] Fluorescence was detected by excitation of the fluorophores with a 488-nm laser on an Acumen Explorer (TTP Lab Tech). […] Cells were detected using channel 3 (575-640 nm) with 5-um width and 100-um depth filters. […]
Screen size: about 320,000 compounds; about 2,100 (0.66%) were called active. Roughly 53% stayed inconclusive and do not appear here. Calls follow the shape of the dose curve; as a rule, active = well fitted inhibition curve with a large enough effect in the signal ratio, with a control signal flat (not every such curve was filed as active); inconclusive = small, poorly fitted or top-dose-only effect, or effect the other way, or a change in a side signal; inactive = flat fitted curve, though single readings scatter; the % refers to the signal ratio. The list comes from a sample in which actives are over-represented; it also holds close analogues and randomly drawn compounds.
// one of active, inactive, no free text

Recorded test call requested for "O=C(CCNC(=O)Cn1ccc2ccccc2c1=O)NCc1ccccn1" inactive

# iterate: "CC(=O)c1cccc(NC(=O)N2CCN(S(C)(=O)=O)CC2)c1" active

# iterate: "Cc1cc(C)cc(NC(=O)N2CCN(S(C)(=O)=O)CC2)c1" inactive

# iterate: CC(C)NC(=O)C(OC(=O)c1ccccc1)C(OC(=O)c1ccccc1)C(=O)O (centres undefined) inactive
